The measurements presented in this section are drawn from ChEMBL document CHEMBL5370688.

Tested on: MDA-MB-231
Assay: Inhibition of cell migration in human MDA-MB-231 cells at 10 uM incubated for 48 hrs by xCELLigence RTCA system analysis
Format: functional, cell-based
Activity calls are given as the source filed them. No cut-off for these calls is given here.
Classes used: 1 for active, 0 for inactive

| molecule | assayedSystem | label |
| --- | --- | --- |
| O=C(O)c1ccccc1Nc1cccc(C(F)(F)F)c1 | MDA-MB-231 | 0 |
| C=CC(=O)Nc1ccccc1Nc1cccc(OCCCCC)c1 | MDA-MB-231 | 1 |
| C=CC(=O)Nc1cccc(Nc2cccc(OCCCCC)c2)c1 | MDA-MB-231 | 1 |
| CCCCCOc1cccc(Nc2cccc(NC(C)=O)c2)c1 | MDA-MB-231 | 0 |
